# assay.overview: inhibition of 3D7 malaria parasite growth – strain 3D7 (AID 2306);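 further: 0% = DMSO wells and 100% = chloroquine plus artemisinin control wells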
# settings: P. falciparum 3D7 erythrocytic growth, LDH absorbance, 72 h; at 2 µM; active compounds read high
Active and inactive are the calls of the source. How the calls were made is not given here.
readout.kind: growth inhibition

Some solved entries appear below for comparison.
Q) Quick check: growth inhibition of CC(=O)c1ccc(Nc2c(C(N)=O)cnc3cc(-c4c(C)noc4C)ccc23)cc1 ?
A) 99% (active)

Q) Quick check: growth inhibition of Cc1[nH]c(CNCCCNc2cc(=O)c3ccccc3[nH]2)c(Br)c1Br ?
A) 91% (active)

Q) Quick check: growth inhibition of CCNc1cc(C)nc(Nc2ccc(F)cc2)n1 ?
A) 101% (active)

Q) Quick check: growth inhibition of Fc1ccc2nccc(NN=CC=Cc3ccccc3)c2c1 ?
A) 96% (active)

Q) Quick check: growth inhibition of CCCN1CCN(c2ccccc2NS(=O)(=O)c2ccc(C(=O)Nc3ccc(Cl)cc3)cc2)CC1 ?
A) 84% (active)

Please report growth inhibition for every entry that follows.
1. CCOC(=O)N1CCC(NC(=O)c2ccc(C(C)(C)C)cc2OC)CC1
2. Cc1cc(C(F)(F)F)n2nc(C(=O)N(Cc3cncn3Cc3cccc(F)c3)CC3CC3)cc2n1
3. CCCCCOc1ccc(C(O)C(CN2CCCCC2)c2ccccc2)cc1 (centres undefined)
4. Cc1cccc2[nH]c(-c3cccc(-c4cccc(NC(=O)COc5ccccc5C(N)=O)c4)c3)nc12
5. COc1cc(NC(=O)N2CCOC(CCN3CCC(c4ccccc4)CC3)(c3ccc(Cl)c(Cl)c3)C2)cc(OC)c1 (centres undefined)
6. COc1ccc(CNCc2cccc(-c3csc(-c4nc5ccccc5[nH]4)c3)c2)cc1
7. COc1cccc(-c2cc(C(=O)Nc3cc(Oc4ccc(O)cc4)cc([N+](=O)[O-])c3)on2)c1
8. Cc1c[nH]c2ccc(/C=C/C(=O)NC3CCC(CCN4CCc5ccc(C#N)cc5CC4)CC3)cc12 (centres undefined)

A)
88% (active)
101% (active)
98% (active)
100% (active)
93% (active)
100% (active)
89% (active)
101% (active)

Please report growth inhibition for every entry that follows.
1. COc1cc(NC(=O)c2ccc3oc4ccccc4c3c2)ccc1OCCN1CCCCC1
2. Cc1ccc2sc(N3CCN(C(=O)c4ccc([N+](=O)[O-])o4)CC3)nc2c1C
3. CCC[C@@H]([C@@H](CC1CCCCC1)C(=O)N[C@H](C(=O)Nc1nccs1)C(C)(C)SCCNC(=O)OCc1ccccn1)N(O)C=O
4. CCCCCC(C)N=C(Nc1ccc(C#N)cc1O)Nc1cccc(Cl)c1Cl (centres undefined)
5. CCN(CC)CCN(Cc1ccc(-c2ccc(Cl)cc2)cc1)C(=O)Cn1c(CCc2cccc(F)c2F)nc(=O)c2ccccc21
6. CC(C)(C)c1ccc(CN2CCC(CNC(=O)c3cc(-c4ccccc4Cl)cs3)C2)cc1 (centres undefined)

A)
89% (active)
90% (active)
99% (active)
100% (active)
101% (active)
101% (active)

---

# assay.overview: inhibition of 3D7 malaria parasite growth – strain 3D7 (AID 2306);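 further: 0% = DMSO wells and 100% = chloroquine plus artemisinin control wells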
# settings: P. falciparum 3D7 erythrocytic growth, LDH absorbance, 72 h; at 2 µM; active compounds read high
Task for the reader: assign each of the following compounds its reported growth inhibition.
Answers are plain numbers, in %.

Please report growth inhibition for every entry that follows.
1. O=C(NCCc1ccc(O)cc1)n1c2ccccc2c2ccccc21
2. Cn1cnc2c(SCc3ccc(OCc4ccccc4)cc3)ncnc21
3. CCOc1cccc(C(=O)Nc2cccc(CN3CCCN(Cc4ccc(O)cc4)CC3)c2)c1
4. CC(C)[C@H](NC(=O)c1c(CN2CCC(N3CCCCC3)CC2)c(-c2ccccc2)nc2cc(O)ccc12)c1ccccc1
5. FC(F)(F)c1cccc(Nc2nc(-n3ccnc3)nc(-n3ccnc3)n2)c1
6. N#CC(c1cccc(Cl)c1)c1ccc2c(C(F)(F)F)cc(C(F)(F)F)nc2n1 (stereo not given)
7. COc1ccc2nccc(N3CCC(NCCNCc4ccc5c(n4)NC(=O)CO5)C3)c2n1 (stereo not given)

A)
[83, 95, 91, 100, 97, 96, 100]

Please report growth inhibition for every entry that follows.
1. COc1cc(C2CCN(CCCCNC(=O)c3ccc(NC(=O)c4ccc(Cl)c(Cl)c4)cc3)CC2)ccc1OC(C)C
2. Cc1nnsc1C(=O)Nc1cccc(-c2ccc(-c3nc4ccc(F)cc4[nH]3)s2)c1
3. CN1CCN(Cc2cccc(-c3ccc4c(Nc5ccc(Oc6ccccc6)cc5)ccnc4c3)c2)CC1
4. CN(C)CCOc1cc(NC(=O)/C=C/c2cccc3ccccc23)ccc1I

A)
101
89
101
98

Please report growth inhibition for every entry that follows.
1. C1=CN(Cc2ccccc2)C=CC1=C1C=Nc2ccccc21
2. O=C(CNc1ccncc1)c1c[nH]c2ccccc12
3. Oc1ccc(-c2ccccc2)cc1CN1CCCCCC1

A)
90
90
95

Please report growth inhibition for every entry that follows.
1. O=S(=O)(c1ccc(OCc2ccc(Cl)cc2)cc1)c1cc2c(cc1OCc1ccccc1)CCN(CC1CC1)CC2
2. NC(N)=NN=Cc1cc2ccccc2c2ccccc12
3. CCN(CC)S(=O)(=O)c1ccc(C(C)NC(=O)c2ccccc2COc2ccccc2)cc1 (stereo not given)

A)
[82, 100, 100]

Please report growth inhibition for every entry that follows.
1. CCO[C@H]1CN[C@H](C#Cc2cc3c(Nc4ccc(OCc5cccc(F)c5)c(Cl)c4)ncnc3s2)C1
2. COc1ccc2ncc(F)c(CCN3C[C@H](CNCc4ccc5c(n4)NC(=O)CS5)[C@H](O)C3)c2c1
3. CN1CCN(S(=O)(=O)c2cccc(Nc3nccc(N(C)c4ccc5c(c4)nc(NC(=O)c4cccs4)n5C)n3)c2)CC1

A)
100
92
99
